molecular target: Human Fc (human); experiment: ELISA, negative control
Item-by-item account of optical density
Answer format: numeric, OD implied, no suffix.

Illustrative cases are given below, each with its answer.
Binder	Reported endpoint	Unit symbol	Assay value
367_E09 (antibody, V domains shown) VH: EVQLLESGGGLVQPGGSLRLSCAASGFTFSDYGMNWVRQAPGKGLEWVASINYNSGYKGYADSVKGRFTISRDNSKNTLYLQMNSLRAEDTAVYYCARSANWHDTALDYWGQGTLVTVSS VL: DIQMTQSPSSLSASVGDRVTITCRASQSILSYLNWYQQKPGKAPKLVIYATTSRASGVPSRFSGSGSGTDFTLTISSLQPEDFATYYCQQSYETPLTFGGGTKVEIK	optical density	OD	0.249
373_G10 (antibody, V domains shown) VH: EVQLLESGGGLVQPGGSLRLSCAASGFTFSDYGMNWVRQAPGKGLEWVSNINYNGGYKSYADSVKGRFTISRDNSKNTLYLQMNSLRAEDTAVYYCARSANWHDTALDYWGQGTLVTVSS VL: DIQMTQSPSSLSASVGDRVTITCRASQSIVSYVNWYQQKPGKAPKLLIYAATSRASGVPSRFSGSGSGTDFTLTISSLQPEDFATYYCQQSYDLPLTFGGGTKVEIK	optical density	OD	0.2

Next binder, optical density to be filled in.
For 373_A10 (antibody, V domains shown) VH: EVQLLESGGGLVQPGGSLRLSCAASGFTFSSYGMNWVRQAPGKGLEWVSGINYNSGYTSYADSVKGRFTISRDNSKNTLYLQMNSLRAEDTAVYYCARSANWHDTALDYWGQGTLVTVSS VL: DIQMTQSPSSLSASVGDRVTITCRASQSILSYLNWYQQKPGKAPKLVIYAATSRASGVPSRFSGSGSGTDFTLTISSLQPEDFATYYCQQSYDLPLTFGGGTKVEIK , what is its reported optical density?
0.175
